Tested on: cefotaxime (CTX) non-susceptible Gram-negative bacteria (GNB)
protocol: DETECT assay with 96-bacterial isolate panel, ROC curve analysis against cefotaxime (CTX) phenotype
Format: cell-based
runConditions: 96-bacterial isolate panel (47 CTX susceptible, 49 CTX non-susceptible), 2.5×10^6 CFU/mL, DETECT score A405 nm 30 min minus 0 min
quantityKind: Sensitivity (ROC Curve Analyzed with CTX)

Q) Please report the recorded Sensitivity (ROC Curve Analyzed with CTX) for Cc1cc(C(=O)N[C@@H]2C(=O)N3C(C(=O)O)=C(CSc4ccccc4)CSC23)on1 (stereo partly drawn) .
A) 0.8406

Q) Also, O=C(O)C1=C(CSc2ccccc2)CSC2[C@H](NC(=O)[C@H]3CCCNC3)C(=O)N12 (stereo partly drawn) please.
A) 0.8116

Q) Also, O=C(Cc1ccccc1)N[C@@H]1C(=O)N2C(C(=O)O)=C(CSc3ccccc3)CSC12 (stereo partly drawn) [Sub-1, reference compound] please.
A) 0.9206

Q) Also, O=C(Cn1cnnn1)N[C@@H]1C(=O)N2C(C(=O)O)=C(CSc3ccccc3)CSC12 (stereo partly drawn) please.
A) 0.8823

Q) Also, O=C(Cc1cccnc1)N[C@@H]1C(=O)N2C(C(=O)O)=C(CSc3ccccc3)CSC12 (stereo partly drawn) please.
A) 0.9275

Q) Also, O=C(COc1ccccc1)N[C@@H]1C(=O)N2C(C(=O)O)=C(CSc3ccccc3)CSC12 (stereo partly drawn) please.
A) 0.7143

###

protocol: Aqueous stability: non-selective hydrolysis of the probe, k(hydro)
Assay type: physicochemical
runConditions: rate of non-selective hydrolysis of the probe and turn on of the DETECT system in the absence of its biomarker target
For each record, write down the corresponding Stability k(hydro).
I only need the number, in M/min, no unit after it.

Q) Please report the recorded Stability k(hydro) for O=C(Cc1cccnc1)N[C@@H]1C(=O)N2C(C(=O)O)=C(CSc3ccccc3)CSC12 (stereo partly drawn) [BAD-5627] .
A) 0.00352

Q) Also, Cc1cc(C(=O)N[C@@H]2C(=O)N3C(C(=O)O)=C(CSc4ccccc4)CSC23)on1 (stereo partly drawn) [BAD-1468] please.
A) 0.00198

Q) Also, O=C(O)C1=C(CSc2ccccc2)CSC2[C@H](NC(=O)[C@H]3CCCNC3)C(=O)N12 (stereo partly drawn) [BAD-3462] please.
A) 0.00558

Q) Also, O=C(Cc1ccccc1)N[C@@H]1C(=O)N2C(C(=O)O)=C(CSc3ccccc3)CSC12 (stereo partly drawn) [Sub-1, reference compound] please.
A) 0.0062

Q) Also, O=C(COc1ccccc1)N[C@@H]1C(=O)N2C(C(=O)O)=C(CSc3ccccc3)CSC12 (stereo partly drawn) [BAD-7465] please.
A) 0.00161

Q) Also, O=C(Cn1cnnn1)N[C@@H]1C(=O)N2C(C(=O)O)=C(CSc3ccccc3)CSC12 (stereo partly drawn) [BAD-5835] please.
A) 0.0044
